test system: 60 different human tumor cell lines; test: NCI Development Therapeutics Program 60 cell line screen, one dose; assay type: cell-based; conditions: CNS Cancer, U251
Assign Growth Percent to each entry below.
Quick reminder: number only, in %, skip the unit.

Short answer for `CN(c1ccccc1)c1nc2c(s1)CC[C@@]1(C)C2=CC[C@@H]2[C@@H]1CC[C@]1(C)C(=O)CC[C@@H]21` : Growth Percent was 36.99

Short answer for `C[C@]12CC[C@H]3[C@@H](CC=C4c5sc(Nc6ccccc6)nc5CC[C@@]43C)[C@@H]1CC[C@@H]2O` : Growth Percent was −30.05

Short answer for `C[C@]12CCc3sc(Nc4ccc(F)cc4F)nc3C1=CC[C@@H]1[C@@H]2CC[C@]2(C)C(=O)CC[C@@H]12` : Growth Percent was 40.73

Short answer for `C[C@]12CC[C@H]3[C@@H](CC=C4c5sc(-c6ccc(O)cc6)nc5CC[C@@]43C)[C@@H]1CC[C@@H]2O` : Growth Percent was 20.08

Short answer for `C[C@]12CCc3nc(Nc4ccc(O)cc4)sc3C1=CC[C@@H]1[C@@H]2CC[C@]2(C)C(=O)CC[C@@H]12` : Growth Percent was 19.48

Short answer for `C[C@]12CCc3sc(Nc4ccc(OC(F)(F)F)cc4)nc3C1=CC[C@@H]1[C@@H]2CC[C@]2(C)C(=O)CC[C@@H]12` : Growth Percent was 34.08

Short answer for `C[C@]12CCc3sc(NCCc4ccccc4)nc3C1=CC[C@@H]1[C@@H]2CC[C@]2(C)C(=O)CC[C@@H]12` : Growth Percent was 60.12

Short answer for `C[C@]12CCc3sc(Nc4cccc(O)c4)nc3C1=CC[C@@H]1[C@@H]2CC[C@]2(C)C(=O)CC[C@@H]12` : Growth Percent was 18.85

Short answer for `C[C@]12CCc3nc(N)sc3C1=CC[C@@H]1[C@@H]2CC[C@]2(C)C(=NNC(N)=O)CC[C@@H]12` : Growth Percent was −69.94
